These measurements were taken from paper PMC7930720.

target: GLUT3 (Homo sapiens, UniProt P11169, S66Y); construct: gene SLC2A3; GLUT3S66Y; test: inhibition of […]-glucose ([…]) uptake in hxt0 EBY.S7 yeast expressing the transporter; growth assay; type: cell-based
Sequence (P11169 whole entry S66Y): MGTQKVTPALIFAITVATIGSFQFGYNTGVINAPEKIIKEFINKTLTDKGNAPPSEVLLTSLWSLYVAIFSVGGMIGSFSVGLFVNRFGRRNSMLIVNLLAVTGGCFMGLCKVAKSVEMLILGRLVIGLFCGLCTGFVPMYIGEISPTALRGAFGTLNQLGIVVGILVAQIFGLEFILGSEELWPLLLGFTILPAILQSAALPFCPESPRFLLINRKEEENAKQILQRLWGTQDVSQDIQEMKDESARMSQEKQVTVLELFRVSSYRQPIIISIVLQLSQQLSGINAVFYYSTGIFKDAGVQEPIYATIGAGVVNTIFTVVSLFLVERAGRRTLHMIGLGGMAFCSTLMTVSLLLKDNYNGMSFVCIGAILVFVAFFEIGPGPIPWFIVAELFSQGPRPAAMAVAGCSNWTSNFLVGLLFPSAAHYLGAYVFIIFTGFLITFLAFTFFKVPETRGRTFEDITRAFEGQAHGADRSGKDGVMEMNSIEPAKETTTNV
Parameter Measured: IC50 (µM)
Unit µM implied. Number only.

## Task Report IC50 for `O=C(CCc1ccc(O)cc1)c1c(O)cc(O)cc1O` tested on GLUT3 (Homo sapiens, UniProt P11169, S66Y).
## Result 22.4

----------
target: GLUT2 (Homo sapiens, UniProt P11168, A89S/DEL55-88/Q455R); construct: gene SLC2A2; assay: inhibition of […]-glucose ([…]) uptake in hxt0 EBY.S7 yeast expressing the transporter; growth assay; type: cell-based
Sequence (P11168 with tags, fused parts or gaps DEL55-88/A89S/Q455R): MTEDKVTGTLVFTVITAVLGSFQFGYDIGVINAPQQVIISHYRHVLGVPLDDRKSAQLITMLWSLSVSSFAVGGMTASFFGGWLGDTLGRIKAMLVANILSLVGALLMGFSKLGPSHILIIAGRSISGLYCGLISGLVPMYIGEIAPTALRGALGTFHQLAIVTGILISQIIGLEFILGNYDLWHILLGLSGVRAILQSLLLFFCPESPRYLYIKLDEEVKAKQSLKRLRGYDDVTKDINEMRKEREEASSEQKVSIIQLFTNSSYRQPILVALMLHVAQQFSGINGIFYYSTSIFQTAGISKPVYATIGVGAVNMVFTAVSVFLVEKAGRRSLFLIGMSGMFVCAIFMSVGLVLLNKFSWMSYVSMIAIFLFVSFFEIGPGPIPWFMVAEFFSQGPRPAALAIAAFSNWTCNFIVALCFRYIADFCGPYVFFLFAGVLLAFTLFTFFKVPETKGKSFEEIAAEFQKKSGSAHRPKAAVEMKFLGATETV
Parameter Measured: IC50
Hey, just the number and the unit after it is fine.

## Task GET /values?readout=IC50&system=GLUT2 (Homo sapiens, UniProt P11168, A89S/DEL55-88/Q455R)&item= `O=C(CCc1ccc(O)cc1)c1c(O)cc(O)cc1O`
## Result 1070 nM
